Data credit: the NTF2 design screens of Basanta et al. (2020)

Assay: protease stability score; higher = more stable; yeast display proteolysis, trypsin and chymotrypsin;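 note: log10 excess protease needed over predicted unfolded state with 0 meaning unfolded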
Task for the reader: assign each of the following sequences its reported protease stability score.
Answers are plain numbers.

>  <POLYMER SEQUENCE>
DEDKVERLKHMWKVVEEGDEDKLREQFDKDASVTVGDKVLTGRENLARHWKRIRDELRFSMTMEKVEVHNGVVDIRVTATEDNNGRPQHKVADVRVDMHNGRIKVLEVDETK

>  <protease stability score>
0.154

$$$$
>  <POLYMER SEQUENCE>
DTESLKKVEDVVNNNDKKKHERLLDKDVRIVVGDKEVRGREQAARDYKRFVNHADHIEIKRVRSNGDKLFIDRVVNFNGQTVHFVVTYVVKNGSIQEVSVKVTDKEHLKLYKEALR

>  <protease stability score>
0.196

$$$$
>  <POLYMER SEQUENCE>
DEKQNNHFKDLMETNDWTQIAKQADENAKAKYGDKTVHGRENITHNNRRIKNRVDEMRIRNLTLEPNRIVQNFVVRVNGQDAQAVMTLEFENGRVKSVKLQARDTRVEEVLRKMMQ

>  <protease stability score>
0.465

$$$$
>  <POLYMER SEQUENCE>
DEDAKRSLNELWKAIQQGDPDRIRELIDKNVRLRYGEKRIHGRDQAAKFWHDLHDHARFKVRDVSIKIHNGRADVRMRMTIHINGEPLDVTVIYKIEFHNGQAVRIELEVDEDQLRKQRK

>  <protease stability score>
0.845

$$$$

Lab note: next sequence to report on.
Ask | Which protease stability score reading was recorded for the sequence DEEMEKRWEEWLDAVTTGDESRVREYMDPNVRYNYGDKHYTGREEIAHDTVREVKRIRIEIKTMSNDDQGEHVRVRFNRVKNDNGEPKEEVLVVEFTQENGRITEATQHEDR ?
Reply | -0.004
